tested on: Huh-7.5.1 cells; assay: Cell viability in the chemical screen (Cell TiterGlo); details: 10 µM compound, 72 h
PROPERTY NAME: Viability Percent DMSO (Percent DMSO)
Write the value in Percent DMSO as a bare number.

Incoming: What Viability Percent DMSO appears in the records for this compound with Huh-7.5.1 cells? `COC(=O)c1cc(OC)c2c(c1-c1c(CO)cc(OC)c3c1OCO3)OCO2`
Outgoing: 115

Incoming: What Viability Percent DMSO appears in the records for this compound with Huh-7.5.1 cells? `Cc1cn([C@H]2C[C@H](N=[N+]=[N-])[C@@H](CO)O2)c(=O)[nH]c1=O`
Outgoing: 92

Incoming: What Viability Percent DMSO appears in the records for this compound with Huh-7.5.1 cells? `O[C@H]1[C@H](O)[C@@H](O)[C@H](O)[C@@H](O)[C@H]1O`
Outgoing: 93

Incoming: What Viability Percent DMSO appears in the records for this compound with Huh-7.5.1 cells? `OC[C@H]1O[C@@H](O[C@@H]2OC=C[C@H]3[C@H](O)[C@@H]4O[C@]4(CO)[C@@H]23)[C@H](O)[C@@H](O)[C@@H]1O`
Outgoing: 128

Incoming: What Viability Percent DMSO appears in the records for this compound with Huh-7.5.1 cells? `CO[C@H]1/C=C/O[C@@]2(C)Oc3c(C)c(O)c4c(O)c(c(/C=N/N5CCN(C)CC5)c(O)c4c3C2=O)NC(=O)/C(C)=C\C=C\[C@H](C)[C@H](O)[C@@H](C)[C@@H](O)[C@@H](C)[C@H](OC(C)=O)[C@@H]1C`
Outgoing: 119

Incoming: What Viability Percent DMSO appears in the records for this compound with Huh-7.5.1 cells? `C=CC1=C(C(=O)O)N2C(=O)[C@@H](NC(=O)/C(=N\O)c3csc(N)n3)[C@H]2SC1`
Outgoing: 101

Incoming: What Viability Percent DMSO appears in the records for this compound with Huh-7.5.1 cells? `CC(C)(C)C#Cc1cc(N(C(=O)[C@H]2CC[C@H](C)CC2)[C@H]2CC[C@H](O)CC2)c(C(=O)O)s1`
Outgoing: 125

Incoming: What Viability Percent DMSO appears in the records for this compound with Huh-7.5.1 cells? CN[C@@H]1[C@H](O)[C@H](NC)[C@H]2O[C@@]3(O)C(=O)C[C@@H](C)O[C@H]3O[C@@H]2[C@H]1O.Cl.Cl [Spectinomycin dihydrochloride]
Outgoing: 109
